- Tested on: panel of 55 breast cancer cell lines
- Assay info: Cell growth inhibition assay (Cell Titer Glo, 72 h, 9 doses; GI50, TGI, LC50)
- Assay type: cell-based, human
- Test parameters: SKBR3 cell line; censored GI50 values; value is the negative log10 of mol/L
Outcome measure: GI50
Please state the value as a number alone, without comment.

Return reported GI50; argument: CC(C)Oc1ccc(C(=O)N[C@H](CNC(=O)CN(C)C)Cc2ccc(-c3cn4cccc([C@H](C)O)c4n3)cc2)cc1Cl
7.34

Return reported GI50; argument: CC(C)[C@H](CO)Nc1nc(Nc2cccc(Cl)c2)c2ncn(C(C)C)c2n1
4.60

Return reported GI50; argument: Oc1cc(-c2nc(-c3ccccc3)[nH]c2-c2ccncc2)ccc1Cl
4.66

Return reported GI50; argument: CC(/C=C/C(=O)NO)=C\[C@@H](C)C(=O)c1ccc(N(C)C)cc1
5.21

Return reported GI50; argument: CNC(=O)c1c(F)cccc1Nc1nc(Nc2cc3c(cc2OC)CCN3C(=O)CN(C)C)nc2[nH]ccc12 [GSK1838705A]
5.16

Return reported GI50; argument: N.N.O=C([O-])C1(C(=O)[O-])CCC1.[Pt+2]
4.87

Return reported GI50; argument: N#Cc1c(NC(=O)c2cccc3ccccc23)sc2c1CCCC2
5.27

Return reported GI50; argument: Cc1cc(C(=O)N2CCN(c3cccc(Cl)c3)CC2)n(-c2ccccc2)n1 [XRP44X]
5.58

Return reported GI50; argument: O=C1NC(=O)/C(=C/c2ccc(-c3ccc(F)cc3O)o2)S1
4.40

Return reported GI50; argument: O=c1[nH]c2ccccc2n1C1CCN(Cc2ccc(-c3nc4cc5[nH]cnc5cc4nc3-c3ccccc3)cc2)CC1
5.68

* * *

- System: panel of 55 breast cancer cell lines
- Assay info: Cell growth inhibition assay (Cell Titer Glo, 72 h, 9 doses; GI50, TGI, LC50)
- Type: cell-based, human
- Test parameters: Homo sapiens, SK-BR-3, SKBR3 cell line; censored GI50 values; read-out: GI50 (converted)
Counter-ions that a name gives are not always drawn.
Outcome measure: log10 GI50 (log10 of the value in µM)
Response schema: value (number) is log10 of GI50 in units of µM.

Return reported log10 GI50; argument: COc1cccc2c1C(=O)c1c(O)c3c(c(O)c1C2=O)C[C@@](O)(C(=O)CO)C[C@@H]3O[C@H]1C[C@H](N)[C@H](O)[C@H](C)O1
-0.90

Return reported log10 GI50; argument: CC(=O)O[C@@]12CO[C@@H]1C[C@H](O)[C@@]1(C)C(=O)[C@H](O)C3=C(C)[C@@H](OC(=O)[C@H](O)[C@@H](NC(=O)OC(C)(C)C)c4ccccc4)C[C@@](O)([C@@H](OC(=O)c4ccccc4)[C@H]21)C3(C)C
-2.12

Return reported log10 GI50; argument: CCCCCN(C)CCC(O)(P(=O)(O)O)P(=O)(O)O [Ibandronate sodium salt]
1.95

Return reported log10 GI50; argument: COc1cc(Nc2c(C#N)cnc3cc(OCCCN4CCN(C)CC4)c(OC)cc23)c(Cl)cc1Cl
0.59

Return reported log10 GI50; argument: CO[C@H]1C[C@@H]2CC[C@@H](C)[C@@](O)(O2)C(=O)C(=O)N2CCCC[C@H]2C(=O)O[C@H]([C@H](C)C[C@@H]2CC[C@@H](OC(=O)C(C)(CO)CO)[C@H](OC)C2)CC(=O)[C@H](C)/C=C(\C)[C@@H](O)[C@@H](OC)C(=O)[C@H](C)C[C@H](C)/C=C/C=C/C=C/1C
-1.27

Return reported log10 GI50; argument: Nc1nc2[nH]cc(CCc3ccc(C(=O)N[C@@H](CCC(=O)O)C(=O)O)cc3)c2c(=O)[nH]1
3.17
